- Assay Comment: Synergistic cytotoxicity against mouse L5178 cells assessed as combination index at ED90 using 75:1 test compound to doxorubicin ratio after 48 hrs by MTT-based checkerboard microplate method
- Assay type: functional
Quantity Kind: CI
The answer should be written as a number, with no unit following it.

Give the measured CI for C=CCO/N=C1/C=C2C3=CC[C@H]([C@@]4(C)OC(C)(C)O[C@@H]4CCC(C)(C)O)[C@@]3(C)CC[C@@H]2[C@@]2(C)C[C@@H]3OC(C)(C)O[C@@H]3C[C@@H]12
0.44

Give the measured CI for CO/N=C1/C=C2C3=CC[C@H]([C@@]4(C)OC(C)(C)O[C@@H]4CCC(C)(C)O)[C@@]3(C)CC[C@@H]2[C@@]2(C)C[C@@H]3OC(C)(C)O[C@@H]3C[C@@H]12
0.39

Give the measured CI for CCO/N=C1/C=C2C3=CC[C@H]([C@@]4(C)OC(C)(C)O[C@@H]4CCC(C)(C)O)[C@@]3(C)CC[C@@H]2[C@@]2(C)C[C@@H]3OC(C)(C)O[C@@H]3C[C@@H]12
0.52

Give the measured CI for CC(C)(O)CC[C@H]1OC(C)(C)O[C@]1(C)[C@H]1CC=C2C3=C/C(=N/OC(C)(C)C)[C@@H]4C[C@H]5OC(C)(C)O[C@H]5C[C@]4(C)[C@H]3CC[C@@]21C
0.55

---

Some molecules, each annotated with its measured CI.
- Assay Comment: Synergistic cytotoxicity against mouse L5178 cells expressing human ABCB1 assessed as combination index at ED50 using 30:1 test compound to doxorubicin ratio after 48 hrs by MTT-based checkerboard microplate method
- Format: functional
The answer should be written as a number, with no unit following it.

[[record]]
cpd_smiles = "CO/N=C1/C=C2C3=CC[C@H]([C@@]4(C)OC(C)(C)O[C@@H]4CCC(C)(C)O)[C@@]3(C)CC[C@@H]2[C@@]2(C)C[C@@H]3OC(C)(C)O[C@@H]3C[C@@H]12"
result = 0.21

[[record]]
cpd_smiles = "CCO/N=C1\\C=C2[C@H](CC[C@]3(C)[C@@H]([C@@]4(C)OC(C)(C)O[C@@H]4CCC(C)(C)O)CC[C@@]23O)[C@@]2(C)C[C@@H]3OC(C)(C)O[C@@H]3C[C@@H]12"
result = 0.2

[[record]]
cpd_smiles = "CC(C)(O)CC[C@H]1OC(C)(C)O[C@]1(C)[C@H]1CC=C2C3=C/C(=N/O)[C@@H]4C[C@H]5OC(C)(C)O[C@H]5C[C@]4(C)[C@H]3CC[C@@]21C"
result = 0.32


Give the measured CI for CC(C)(O)CC[C@H]1OC(C)(C)O[C@]1(C)[C@H]1CC=C2C3=C/C(=N\OC(C)(C)C)[C@@H]4C[C@H]5OC(C)(C)O[C@H]5C[C@]4(C)[C@H]3CC[C@@]21C
0.36

---

- Assay Comment: Synergistic cytotoxicity against mouse L5178 cells expressing human ABCB1 assessed as combination index at ED50 using 30:1 test compound to doxorubicin ratio after 48 hrs by MTT-based checkerboard microplate method
- Format: functional
Quantity Kind: CI

Solved cases (5 shown):
[[record]]
cpd_smiles = "CC(C)(O)CC[C@H]1OC(C)(C)O[C@]1(C)[C@H]1CC=C2C3=CC(=O)N[C@@H]4C[C@H]5OC(C)(C)O[C@H]5C[C@]4(C)[C@H]3CC[C@@]21C"
result = 0.18

[[record]]
cpd_smiles = "CC(C)(O)CC[C@H]1OC(C)(C)O[C@]1(C)[C@H]1CC[C@@]2(O)C3=C/C(=N\\OC(C)(C)C)[C@@H]4C[C@H]5OC(C)(C)O[C@H]5C[C@]4(C)[C@H]3CC[C@]12C"
result = 0.27

[[record]]
cpd_smiles = "C=CCO/N=C1/C=C2C3=CC[C@H]([C@@]4(C)OC(C)(C)O[C@@H]4CCC(C)(C)O)[C@@]3(C)CC[C@@H]2[C@@]2(C)C[C@@H]3OC(C)(C)O[C@@H]3C[C@@H]12"
result = 0.32

[[record]]
cpd_smiles = "CCO/N=C1/C=C2C3=CC[C@H]([C@@]4(C)OC(C)(C)O[C@@H]4CCC(C)(C)O)[C@@]3(C)CC[C@@H]2[C@@]2(C)C[C@@H]3OC(C)(C)O[C@@H]3C[C@@H]12"
result = 0.22

[[record]]
cpd_smiles = "CCO/N=C1/C=C2[C@H](CC[C@]3(C)[C@@H]([C@@]4(C)OC(C)(C)O[C@@H]4CCC(C)(C)O)CC[C@@]23O)[C@@]2(C)C[C@@H]3OC(C)(C)O[C@@H]3C[C@@H]12"
result = 0.23


Give the measured CI for CO/N=C1\C=C2[C@H](CC[C@]3(C)[C@@H]([C@@]4(C)OC(C)(C)O[C@@H]4CCC(C)(C)O)CC[C@@]23O)[C@@]2(C)C[C@@H]3OC(C)(C)O[C@@H]3C[C@@H]12
0.19

Give the measured CI for C=CCO/N=C1\C=C2[C@H](CC[C@]3(C)[C@@H]([C@@]4(C)OC(C)(C)O[C@@H]4CCC(C)(C)O)CC[C@@]23O)[C@@]2(C)C[C@@H]3OC(C)(C)O[C@@H]3C[C@@H]12
0.17

Give the measured CI for CC(C)(O)CC[C@H]1OC(C)(C)O[C@]1(C)[C@H]1CC=C2C3=C/C(=N/OC(C)(C)C)[C@@H]4C[C@H]5OC(C)(C)O[C@H]5C[C@]4(C)[C@H]3CC[C@@]21C
0.34

Give the measured CI for CC(C)(O)CC[C@H]1OC(C)(C)O[C@]1(C)[C@H]1CC=C2C3=C/C(=N\O)[C@@H]4C[C@H]5OC(C)(C)O[C@H]5C[C@]4(C)[C@H]3CC[C@@]21C
0.25

Give the measured CI for C=CCO/N=C1/C=C2[C@H](CC[C@]3(C)[C@@H]([C@@]4(C)OC(C)(C)O[C@@H]4CCC(C)(C)O)CC[C@@]23O)[C@@]2(C)C[C@@H]3OC(C)(C)O[C@@H]3C[C@@H]12
0.21
